Where these numbers come from: PubChem BioAssay (NCI)

Target or system U251 CNS: recorded GI50 listed per item.

Record excerpt, results attached:
Identify measured GI50 corresponding to CCCCCCn1c(-c2ccc(C(=O)O/N=C(\N)c3ccc4ccccc4c3)cc2)nc(-c2ccccc2)c1-c1ccccc1
7640 nM

Identify measured GI50 corresponding to [Cl][Hg][c]1ccc(Cl)s1
910 nM

Identify measured GI50 corresponding to COc1cc(C(=O)N2CCN(c3ccccc3)CC2)c2ccccc2n1
95.5 nM

Further cases:
Identify measured GI50 corresponding to CCCCCCCCC/C(=N\NC(=O)c1ccncc1)c1ccc(O)c(O)c1O
110 nM

Identify measured GI50 corresponding to CC(C)(C)[Si](C)(C)OC1[C@@H](O[Si](C)(C)C(C)(C)C)[C@@H](CNC(=O)NC(=O)CF)O[C@H]1n1cnc2c(NC(=O)Nc3ccccc3)ncnc21 (stereo not given in full)
9670 nM
